Reference source for all entries: paper PMC2717697

biological target: WT and E363Q CNGA1 channels; conditions: read-out: KL; fit of Eq. 1 to G-V relations 10 to 200 mV, WT and E363Q together
experimental endpoint: Kd
Put your answer as a value accompanied by its unit after it.

Reported Kd ( Nc1nc2c(ncn2[C@@H]2O[C@@H]3COP(=O)(O)O[C@H]3[C@H]2O)c(=O)[nH]1 [cGMP, cyclic GMP] ) = 78 µM
